A collection of compounds and their measured slope
# test.system: Alpha-2C adrenergic receptor (Homo sapiens)
# protocol.description: compounds altering alpha2C-coupled GIRK flux – cell-based, HEK293 alpha2C/GIRK1/2, thallium flux, primary screen (AID 624);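 note: slope of fluorescence ratio to pre-addition baseline per second over 15 to 24 s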
# assay.context: thallium flux BTC fluorescence, at 10 µM, actives lie on both sides
Just the number, please, no unit after it.

Check out these entries, answers already filled in.
>>> measured_number("Cc1cc(C)nc(-n2nc(C)cc2NC(=O)c2ccc(Br)o2)n1")
0.00507
>>> measured_number("Nc1[nH]nc2nc(N3CCCC3)nc(-c3ccccc3)c12")
0.00548
>>> measured_number("COC(=O)C1=CN(C)C=C(C(=O)OC)C1c1ccc(O)c(OC)c1")
0.00249

State the recorded slope for this entry: CCC(=O)c1ccc(OCC(O)CN2CCN(S(=O)(=O)N3CCCCC3)CC2)cc1 (stereo unspecified)
0.00309

How about CCOC(=O)N1CCN(Cc2ccccc2F)CC1 ?
0.00418

Also CN(CCNC(=O)c1ccc(N2CCCC2=O)cc1)CCc1ccccc1 ?
0.00561

Would you mind doing CSc1c(CC(=O)NCCO)n(C)c2ccccc12 as well?
0.005

Then COc1ccc(-n2nc(C(=O)NCC(=O)NCC3CCCO3)c3ccccc3c2=O)cc1 (stereo unspecified) ?
0.0067

Item: COc1ccccc1C(=O)N1CCN(CCc2ccccc2)CC1
0.00331

// same read-out, input: COC(=O)CN1C(=O)C(O)(CC(=O)c2ccc(C)cc2)c2cc(Br)ccc21 (stereo unspecified)
0.00497

Do the same for Cc1onc(-c2ccccc2)c1C(=O)N1CCOCC1 please
0.00368

* * *

# test.system: Voltage-gated potassium channel subunit beta-2 (Rattus norvegicus) (UniProt P62483)
# Sequence (P62483 whole entry, looked up): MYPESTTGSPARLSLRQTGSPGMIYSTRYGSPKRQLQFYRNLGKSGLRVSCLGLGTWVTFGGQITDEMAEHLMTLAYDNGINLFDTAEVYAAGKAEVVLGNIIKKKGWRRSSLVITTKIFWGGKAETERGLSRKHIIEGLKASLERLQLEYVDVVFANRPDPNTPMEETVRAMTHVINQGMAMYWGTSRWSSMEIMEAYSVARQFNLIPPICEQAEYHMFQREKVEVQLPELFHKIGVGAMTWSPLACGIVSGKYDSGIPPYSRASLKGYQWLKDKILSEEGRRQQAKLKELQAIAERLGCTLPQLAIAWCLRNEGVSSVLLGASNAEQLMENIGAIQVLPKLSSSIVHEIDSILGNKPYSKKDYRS
# protocol.description: inhibitors of rat Kvbeta2 reductase activity – biochemical, NADPH fluorescence, primary screen (AID 622);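 note: slope of raw intensity against log time taken from 70 to 1610 s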
# assay.context: recombinant KvBeta, 4-cyanobenzaldehyde reduction, at 10 µM, stronger effect = higher value
In this scheme, each record receives a class according to its fluorescence slope; the ranges are low bracket = under -0.5, middle bracket = from -0.5 up to -0.4, high bracket = -0.4 and over

Would you please look over these solved cases?
>>> assigned_class("CC1CN(C(=O)CSc2ncnc3sccc23)CC(C)O1 (centres undefined)")
"middle bracket"
>>> assigned_class("Cc1c(C)n(C(=O)CN2CCN(c3ccccn3)CC2)c2ccccc12")
"high bracket"
>>> assigned_class("COC(=O)Cc1cc(=O)n(-c2ccccc2)[nH]1")
"high bracket"

Which category fits this record: COc1cc(OC)cc(C(=O)NCCN2CCOCC2)c1
low bracket

Follow-up item: NC(=O)c1cc(-c2ccccc2)nc(N2CCOCC2)n1
low bracket

Ok, now CCOc1ccccc1NS(=O)(=O)c1c(C)noc1C
middle bracket

Would you kindly repeat that for O=C(c1ccccc1)N1CCN(CC2CC=CCC2)CC1 (centres undefined) ?
high bracket

Subsequent entry: CCOC(=O)c1cc(-c2ccccc2)sc1N
high bracket

Another: CC(C)OC(=O)C1C2C=CC3(CN(Cc4cccs4)C(=O)C13)O2 (centres undefined)
low bracket

* * *

This section presents compounds with their documented NADPH fluorescence slope values.
# test.system: Voltage-gated potassium channel subunit beta-2 (Rattus norvegicus)
# protocol.description: enhancers of rat Kvbeta2 NADPH turnover – biochemical, NADPH fluorescence, primary screen (AID 623);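 note: fluorescence intensity change per second fitted from 20 to 320 s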
# assay.context: Recombinant KvBeta, NADPH fluorescence decrease slope, 10 min; at 10 µM; stronger effect = lower value
Active and inactive are the calls of the source.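 The calls were made as follows: active = NADPH fluorescence slope more negative than the mean of all samples by about 3 SD, 99.7% confidence; inactive = the rest.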

>>> result("CCC(=O)c1cc(F)c(N2CCN(C(=O)c3ccco3)CC2)cc1C")
"-4.1e-05 (inactive)"
>>> result("CCOC(=O)C1=C(Cn2cnc3ccccc32)NC(=O)NC1c1cc(C)ccc1C (stereo unspecified)")
"-1.9e-05 (inactive)"
>>> result("CCCn1c2c(c(O)c(C(=O)Nc3ccc(C)cn3)c1=O)CCCC2")
"-6e-05 (inactive)"
>>> result("O=C(NCCCn1ccnc1)c1csc2ccccc12")
"-3.7e-05 (inactive)"
>>> result("Cc1cn(C2CC3OCC3O2)c(=O)[nH]c1=O (stereo unspecified)")
"1.2e-05 (inactive)"

Could you tell me which NADPH fluorescence slope is on file for O=C(O)CSC1CC(=O)N(c2ccc(Cl)c(Cl)c2)C1=O (stereo unspecified) ?
-5.1e-05 (inactive)

* * *

# test.system: Voltage-gated potassium channel subunit beta-2 (Rattus norvegicus)
# protocol.description: enhancers of rat Kvbeta2 NADPH turnover – biochemical, NADPH fluorescence, primary screen (AID 623);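 note: fluorescence intensity change per second fitted from 20 to 320 s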
# assay.context: Recombinant KvBeta, NADPH fluorescence decrease slope, 10 min; at 10 µM; stronger effect = lower value
Some compounds, each annotated with its measured NADPH fluorescence slope.
Please state the value as a number alone, without comment.

Solved entries (count: 8):
>>> measured_number("COCCOC(=O)C1=C(N)OC2=C(C(=O)CC(C)(C)C2)C1c1cccnc1 (stereo not given)")
"-4.3e-05"
>>> measured_number("COC(=O)CN1C(=O)C(O)(CC(=O)c2ccc(C)cc2)c2cc(Br)ccc21 (stereo not given)")
"-4.5e-05"
>>> measured_number("O=C(NCCN1CCOCC1)C1CCC(=O)N1Cc1ccccc1Cl (stereo not given)")
"2e-07"
>>> measured_number("CC(=O)NC(C)C(=O)OCC(=O)Nc1ccc(Br)cc1 (stereo not given)")
"-5.1e-06"
>>> measured_number("Nc1nnc(SCC(=O)N2CCN(c3ccccc3)CC2)n1-c1ccccc1")
"-3.7e-05"
>>> measured_number("O=C(NCc1ccco1)c1cccc(S(=O)(=O)N2CCCCC2)c1")
"3.8e-05"
>>> measured_number("CCCC1CC(C)(C(=O)Cn2[nH]c(=O)ccc2=O)OC1=O (stereo not given)")
0.000145
>>> measured_number("COC(=O)c1cccc(NC(=O)CN2CCN(Cc3ccccc3)CC2)c1")
"-9.8e-07"

Give its NADPH fluorescence slope value. Item: COc1ccc(CC(=O)OCn2nnc3ccccc3c2=O)cc1
-4.2e-05

Another compound: O=C(CN1CCN(C2CCCCC2)CC1)Nc1ccccc1-c1ccccc1
-3.4e-05

Query CCOCCCN(Cc1cc2cc(C)cc(C)c2[nH]c1=O)C(=O)N(CC)CC next
-3.6e-05

Please answer likewise for CC1(C)Cc2noc(N)c2C(C)(C)N1OC(=O)c1ccccc1
1.8e-05

# iterate: Cc1ncc(CO)c2c1OC(C)(C)OC2
-0.0002

Item: Cn1c(=O)c2c(nc(NCc3ccco3)n2C/C=C/c2ccccc2)n(C)c1=O
3.3e-05

* * *

// values below are reported inhibition of aggregation
# protocol.description: reduction of polyQ htt aggregates in cells – imaging, exon1htt(103Q)mCFP cells, high-content imaging, primary screen (AID 483);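 note: compound exposure lasted 3 days before fixation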
# assay.context: exon1htt(103Q)mCFP cell line, aggregate imaging, at 2 µM; stronger effect = higher value
// note: answer is a bare numeric in %

>>> measured_number("COc1ccc(-c2nnc3sc(C(C)N4C(=O)c5ccccc5C4=O)nn23)cc1 (stereo unspecified)")
2.3
>>> measured_number("Cc1cccc(OCc2nc(C#N)c(NCCN(C)C)o2)c1")
-1.8

Can you share its inhibition of aggregation? I mean this compound: O=S(=O)(c1cccc(S(=O)(=O)N2CCC(N3CCCCC3)CC2)c1)N1CCOCC1
-6.3

And what about the compound CCc1cc2c(=O)c(-c3nc4ccccc4[nH]3)coc2c(CN2CCC(C)CC2)c1O ?
11.5

Try this compound too: CC(=O)Nc1ccc(-c2nn[nH]n2)cc1Cl
-3

* * *

# test.system: Voltage-gated potassium channel subunit beta-2 (Rattus norvegicus)
# protocol.description: inhibitors of rat Kvbeta2 reductase activity – biochemical, NADPH fluorescence, primary screen (AID 622);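 note: slope of raw intensity against log time taken from 70 to 1610 s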
# assay.context: recombinant KvBeta, 4-cyanobenzaldehyde reduction, at 10 µM, stronger effect = higher value
fluorescence slope vs -0.4: at or above is Criterion met, below is Criterion not met.

>>> assigned_class("COC(=O)C1=C(N)OC2=C(C(=O)CCC2)C1c1cccs1 (stereo not drawn)")
"Criterion not met"
>>> assigned_class("COc1ccccc1N1CCN(C/C(O)=C(\\C#N)c2nc(-c3ccccc3)cs2)CC1")
"Criterion not met"
>>> assigned_class("Cc1cc(C(=O)Cn2cncn2)c(C)n1CCc1ccc(F)cc1")
"Criterion not met"
>>> assigned_class("CC(=O)NC1(c2nnnn2CCOC(=O)Nc2ccc(Cl)cc2)CCCCC1")
"Criterion not met"
>>> assigned_class("Cc1nnc(SCC(=O)Nc2ccc3c4c(cccc24)CC3)n1C")
"Criterion met"

hey, is fluorescence slope for this one >= -0.4? COc1ccc(C2CC(c3ccc(Cl)cc3)Nc3nc(NC(=O)c4ccco4)nn32)cc1 (stereo not drawn)
Criterion not met

Same lookup for Cc1ccc(C)c(OCC(O)CN2C(C)CCCC2C)c1 (stereo not drawn) , please.
Criterion not met

Next molecule up: CC1CN(c2nc3ccccc3nc2C(C#N)C(=O)OC2CCCCC2)CC(C)O1 (stereo not drawn)
Criterion met

// query: O=C(Nc1ccc(NC(=O)C2CC2)cn1)c1ccccc1Cl
Criterion met

Field entry: CCOC(=O)C1CCCN(C(=O)c2cc(=O)c3ccccc3o2)C1 (stereo not drawn)
Criterion not met

And Nc1nnc(-c2cn(-c3ccccc3)nc2-c2ccccc2)o1 ?
Criterion not met

Follow-up item: CCn1c(C)nc2cc(C(=O)OC(C(F)(F)C(F)F)C(F)(F)C(F)F)ccc21
Criterion not met

Note, next up: O=C(Nc1ccc2c(c1)C(=O)N(C1CCCCC1)C2=O)C1CCCO1 (stereo not drawn)
Criterion met

Then O=C1C/C(=C/NCc2ccccc2)C(=O)N1 ?
Criterion not met

// query: O=c1c2nnn(Cc3ccc(Cl)cc3)c2ncn1Cc1ccc(F)cc1
Criterion not met

Another molecule to look at: CC1(C)Cc2c(sc3c2c(=N)n(Cc2ccco2)c(=O)n3Cc2ccccc2)CO1
Criterion not met

And the next one, O=C(CSc1nnc(-c2cnccn2)n1Cc1ccco1)c1ccc(Cl)cc1 ?
Criterion not met

Please give the result for CS(=O)(=O)N(CC(=O)N1CCCCCC1)c1ccc(Br)cc1 too.
Criterion met

And the next one, Cc1ccc(Cl)cc1N1CCN(C(=O)c2cn(C)c(=O)c3c2c2ccccc2n3C)CC1 ?
Criterion met

For Cc1ccc(NC(=O)CCC(=O)OCC(F)(F)C(F)F)cc1 then?
Criterion not met

Follow-up entry: COc1ccc(C2C=C(c3ccccc3)Nc3ncnn32)cc1 (stereo not drawn)
Criterion met
